Data origin: ChEMBL document CHEMBL3098054

- System: MCF7
- ASSAY_SUMMARY: Cytotoxicity against human MCF7 cells at 1 uM after 72 hrs by MTT assay
- Type: functional
- REPORTED_CONDITIONS: MCF7, 72 h, read-out: GI

[
  {
    "STRUCTURE_SMILES_STRING": "COC(=O)O[C@H]1C[C@H]2OC[C@@]2(OC(C)=O)[C@H]2[C@H](OC(=O)c3ccccc3)[C@]3(O)C[C@H](OC(=O)[C@H](O)[C@@H](NC(=O)c4ccccc4)c4ccccc4)C(C)=C([C@@H](OC)C(=O)[C@]12C)C3(C)C",
    "inhibition of growth at 1 µM": "107%"
  },
  {
    "STRUCTURE_SMILES_STRING": "CO[C@H]1C(=O)[C@]2(C)[C@@H](OC)C[C@H]3OC[C@@]3(OC(C)=O)[C@H]2[C@H](OC(=O)c2ccccc2)[C@]23OC(=O)O[C@H]2[C@H](OC(=O)[C@H](O)[C@@H](NC(=O)OC(C)(C)C)c2ccccc2)C(C)=C1C3(C)C",
    "inhibition of growth at 1 µM": "93.5%"
  },
  {
    "STRUCTURE_SMILES_STRING": "CO[C@H]1C[C@H]2OC[C@@]2(OC(C)=O)[C@H]2[C@H](OC(=O)c3ccccc3)[C@]3(O)C[C@H](OC(=O)[C@H](O)[C@@H](NC(=O)OC(C)(C)C)c4ccccc4)C(C)=C([C@@H](OC(=O)N(C)C)C(=O)[C@]12C)C3(C)C",
    "inhibition of growth at 1 µM": "93.5%"
  },
  {
    "STRUCTURE_SMILES_STRING": "CO[C@H]1C(=O)[C@]2(C)[C@@H](OC(=O)N(C)C)C[C@H]3OC[C@@]3(OC(C)=O)[C@H]2[C@H](OC(=O)c2ccccc2)[C@]2(O)C[C@H](OC(=O)[C@H](O)[C@@H](NC(=O)OC(C)(C)C)c3ccccc3)C(C)=C1C2(C)C",
    "inhibition of growth at 1 µM": "102%"
  }
]
